Hello, the source for this data is patent US11629139B2, in case you need it.

system: vesicular stomatitis virus particles (VSV) pseudotyped with EboV Zaire GP; experiment: microbe, parasite or virus in culture; assay type: cell-based; conditions: Vesicular stomatitis virus
measureName: pIC50
Quick note: pIC50 means taking -log10 of the concentration in moles per liter.

INSERT INTO assay_data (molecule, recordedmeasurement) VALUES
  ('N#Cc1ccc(COc2ccccc2CN2CCN(C(=O)CNC(=O)CC34CC5CC(CC(C5)C3)C4)CC2)cc1', 6.15);

Then this molecule:
Write down the reported pIC50 of "C#Cc1ccc(F)c(CN2CCN(C(=O)CNC(=O)CC34CC5CC(CC(C5)C3)C4)CC2)c1" , test system: vesicular stomatitis virus particles (VSV) pseudotyped with EboV Zaire GP.
5.77
